target: T1, human CD3 on CD3+ Jurkat cells (human, UniProt P07766 23-207); assay: flow cytometry on CD3+ Jurkat cells, ratio of MFI at pH 6.0 to pH 7.4
T1 construct: whole, on cells; Native CD3 complex on cells; the other CD3 chains are not specified for this assay; also called Human CD3+ Jurkat
T1 sequence (P07766 23-207): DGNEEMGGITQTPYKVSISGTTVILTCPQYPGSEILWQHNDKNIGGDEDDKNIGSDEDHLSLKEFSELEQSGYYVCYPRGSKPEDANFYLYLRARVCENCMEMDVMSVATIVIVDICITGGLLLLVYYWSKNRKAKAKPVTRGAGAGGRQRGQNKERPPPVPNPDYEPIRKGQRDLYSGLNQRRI
reportedEndpoint: MFI pH 6.0/MFI pH 7.4
Keep it simple and answer with nothing but the number.

binder	MFI pH 6.0/MFI pH 7.4
SAD10319_P01_D01 (ADI-48622) (antibody, V domains shown, IgG; also called Ab231) VH: QVQLVQSGAEVKKPGASVKVSCKASGYTFKSYDMHWVRQAPGQRLEWMGWIDAGTGNTKYSQKFQGRVTITRDTSASTAYMELSSLRSEDTAVYYCARDAYGRYFYDVWGQGTLVTVSS VL: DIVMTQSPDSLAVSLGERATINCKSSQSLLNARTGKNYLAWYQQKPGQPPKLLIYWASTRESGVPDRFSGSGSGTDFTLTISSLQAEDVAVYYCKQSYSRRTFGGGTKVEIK	5.4

Now consider the entry below.
Answer with the recorded MFI pH 6.0/MFI pH 7.4 for the binder listed here: SAD10318_P01_D02 (ADI-48584) (antibody, V domains shown, IgG; also called Ab3) VH: QVQLVQSGAEVKKPGASVKVSCKASGFNIKDYYMHWVRQAPGQRLEWMGWIDLENANTIYDAKFQGRVTITRDTSASTAYMELSSLRSEDTAVYYCARDAHHRYFYDVWGQGTLVTVSS VL: DIVMTQSPDSLAVSLGERATINCKSSQSLLNARTGKNHLAWYQQKPGQPPKLLIYWASTRESGVPDRFSGSGSGTDFTLTISSLQAEDVAVYYCKQSHSHRTFGGGTKVEIK 23.9

Data provenance is patent US20220380463A1.
